# Test system: PPARg DBDmut:RXRa IVT, anti-PPARg (DBD mutation: PPARg1 K132A/R137A, NR concentration 270 nM, RXRa partner concentration 90 nM)
# PROCEDURE SUMMARY: PBM binding z-score (relative to random genomic background probes); higher = stronger binding; sequences stand for … in GC…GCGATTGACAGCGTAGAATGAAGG
Assign PBM binding z-score to each entry below.
The answer should be a number; do not append a unit.

Query block: Return reported PBM binding z-score; argument: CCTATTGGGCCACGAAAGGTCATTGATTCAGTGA
Result block: 0.172

Query block: Return reported PBM binding z-score; argument: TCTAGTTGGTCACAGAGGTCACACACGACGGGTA
Result block: 1.86

Query block: Return reported PBM binding z-score; argument: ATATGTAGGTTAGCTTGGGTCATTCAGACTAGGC
Result block: 1.34

Query block: Return reported PBM binding z-score; argument: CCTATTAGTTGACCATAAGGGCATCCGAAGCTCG
Result block: 0.764

Query block: Return reported PBM binding z-score; argument: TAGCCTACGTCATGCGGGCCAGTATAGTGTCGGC
Result block: -0.565

* * *

# Tested on: RARg homodimer (NR concentration 270 nM)
# PROCEDURE SUMMARY: PBM binding z-score (relative to random genomic background probes); higher = stronger binding; sequences stand for … in GC…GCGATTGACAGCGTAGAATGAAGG
MEASURED METRIC: PBM binding z-score

Query block: Request - read-out PBM binding z-score | tested on RARg homodimer (NR concentration 270 nM) | sequence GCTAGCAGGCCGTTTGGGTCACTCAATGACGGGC
Result block: 0.649

Query block: Request - read-out PBM binding z-score | tested on RARg homodimer (NR concentration 270 nM) | sequence TGAATGAGGTTATAAGATCTGGGAACGTTGCAAA
Result block: 0.631

Query block: Request - read-out PBM binding z-score | tested on RARg homodimer (NR concentration 270 nM) | sequence TCTCGGAGGATACGAAGGTCAGAGCTTTCCAGAG
Result block: 2.03

Query block: Request - read-out PBM binding z-score | tested on RARg homodimer (NR concentration 270 nM) | sequence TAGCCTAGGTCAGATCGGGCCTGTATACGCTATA
Result block: 3.21

Query block: Request - read-out PBM binding z-score | tested on RARg homodimer (NR concentration 270 nM) | sequence TCATATAGGTAATACATGTGAAAGTCGGCATCTA
Result block: 0.544

Query block: Request - read-out PBM binding z-score | tested on RARg homodimer (NR concentration 270 nM) | sequence GATACAGGGTCAAGGCGAGAGTACGCGTATTGAT
Result block: 4.87

Query block: Request - read-out PBM binding z-score | tested on RARg homodimer (NR concentration 270 nM) | sequence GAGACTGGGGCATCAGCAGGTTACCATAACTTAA
Result block: 0.703

* * *

# System: LXRb homodimer (NR concentration 270 nM)
# PROCEDURE SUMMARY: PBM binding z-score (relative to random genomic background probes); higher = stronger binding; sequences stand for … in GC…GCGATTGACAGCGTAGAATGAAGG
Classification field: enter class 1 for PBM binding z-score values not below 0.3, class 0 for values below it.

Query block: Is PBM binding z-score for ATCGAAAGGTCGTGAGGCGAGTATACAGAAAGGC at or above 0.3?
Result block: class 1

Query block: Is PBM binding z-score for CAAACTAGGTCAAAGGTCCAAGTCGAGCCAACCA at or above 0.3?
Result block: class 0

Query block: Is PBM binding z-score for TCTAGCAGGCCAGAGGGCCACTCAAGAGGTACGG at or above 0.3?
Result block: class 0

Query block: Is PBM binding z-score for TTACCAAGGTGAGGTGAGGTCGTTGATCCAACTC at or above 0.3?
Result block: class 0

Query block: Is PBM binding z-score for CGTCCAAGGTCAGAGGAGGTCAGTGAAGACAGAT at or above 0.3?
Result block: class 0

Query block: Is PBM binding z-score for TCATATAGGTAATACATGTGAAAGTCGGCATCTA at or above 0.3?
Result block: class 0

Query block: Is PBM binding z-score for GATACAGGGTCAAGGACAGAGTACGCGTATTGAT at or above 0.3?
Result block: class 1

Query block: Is PBM binding z-score for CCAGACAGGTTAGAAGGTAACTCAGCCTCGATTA at or above 0.3?
Result block: class 0
